test system: CD8+ T cells; assay: Exogenous autologous healthy donor restimulation assay, TNFα and IFNγ production by CD8+ T cells; assay type: cell-based, human; conditions: positive if CD8+ and/or CD4+ double positive TNFα/IFNγ frequency >=3-fold over DMSO and at least 0.01%
PROPERTY NAME: Immunogenic (yes/no)

| MOLECULE | RESULT |
| --- | --- |
| EIEGSCHGGMITMDIKMGSYSCDYLKHSETLSAMVVSCGISFLFLFPRKKIAKLIFKEQVP (alternative splicing, EPHA6) EIEGSCHGGMITMDIKMGSYSCDYLKHSETLSAMVVSCGISFLFLFPRKKIAKLIFKEQVP | Yes |
| MSATTGSQDNPEGKRDPSRKFQEQKALPKRPPLQKNLRNGVGQHYPATLTSRTRNSIKMRHSRTTRARRPPPSPVLPWAASNSQARPETSSLSEKSPEV (alternative splicing, CSAG1) MSATTGSQDNPEGKRDPSRKFQEQKALPKRPPLQKNLRNGVGQHYPATLTSRTRNSIKMRHSRTTRARRPPPSPVLPWAASNSQARPETSSLSEKSPEV | Yes |
| RQREVVDLVKKDLVMRAVSLGTQRGDQNGRPSWSGHAIWARIMECAYKGQQECLVETGALGPMAFRVHLGSQVGMDSKEKRGNV (alternative splicing, CTHRC1) RQREVVDLVKKDLVMRAVSLGTQRGDQNGRPSWSGHAIWARIMECAYKGQQECLVETGALGPMAFRVHLGSQVGMDSKEKRGNV | Yes |
| TQRLPGHKVSNSCMTGLVLTFTKRDPFHKPVTWCGQLADVRQCMFHSIRERAHPLQRALATLNFFFVSFYTALYLTHPLLTLQTWEVVVTVCFSCWELCVPCDVLRRTCRGQR (alternative splicing, BTBD3) TQRLPGHKVSNSCMTGLVLTFTKRDPFHKPVTWCGQLADVRQCMFHSIRERAHPLQRALATLNFFFVSFYTALYLTHPLLTLQTWEVVVTVCFSCWELCVPCDVLRRTCRGQR | Yes |
| RQREVVDLVSPREPSRDRRAGGGDLAARPTGRASVWLLGVSVCTAVCRVSCCAGVSCFLFTGEEGPGYACSESWNSEGRPKWEAIVERTCDMGPYNGMCLQG (alternative splicing, CTHRC1) RQREVVDLVSPREPSRDRRAGGGDLAARPTGRASVWLLGVSVCTAVCRVSCCAGVSCFLFTGEEGPGYACSESWNSEGRPKWEAIVERTCDMGPYNGMCLQG | Yes |

Quote Immunogenic (yes/no) reported for PPTAAASQVRSPTTATGTAAAGSLRAQTSSRATTESTRATGHSSAICAIVPSRAPITWRCT (gene fusion FOSB-> KLF2) PPTAAASQVRSPTTATGTAAAGSLRAQTSSRATTESTRATGHSSAICAIVPSRAPITWRCT please.
Yes

Values compiled from patent US20210261636A1.
